Below, each entry is listed alongside its reported AUC(0-t).
methodSummary: Plasma carbidopa and levodopa after SINEMET CR alone or after carbidopa pre-dosing
Format: in vivo
conditionSet: beagle, dog, plasma, po, plasma; Carbidopa 12.5 mg pre-dose + SINEMET CR; fed beagle dogs; read-out: AUC0-24
Numeric only. Scale: ng·h/mL

compound | propertyMeasured | val
N[C@@H](Cc1ccc(O)c(O)c1)C(=O)O [Levodopa, L-3,4-dihydroxyphenylalanine] | AUC(0-t) | 8640

// moving on: another record for AUC(0-t)
Which AUC(0-t) is reported for this compound? `C[C@@](Cc1ccc(O)c(O)c1)(NN)C(=O)O` 592

====

methodSummary: Plasma carbidopa and levodopa after SINEMET CR alone or after carbidopa pre-dosing
Type: in vivo
conditionSet: beagle, dog, plasma, po, plasma; SINEMET CR (50 mg carbidopa/200 mg levodopa) alone; fed beagle dogs; read-out: AUC0-24
Listed here: items and their measured AUC(0-t).
Form entry: value (µg·h/mL) — number only.

compound | uom | AUC(0-t)
C[C@@](Cc1ccc(O)c(O)c1)(NN)C(=O)O | µg·h/mL | 0.215

What does the data say about its AUC(0-t)? Entry: N[C@@H](Cc1ccc(O)c(O)c1)C(=O)O [Levodopa, L-3,4-dihydroxyphenylalanine] 3.9
